Values were extracted from paper PMC10716145.

# study_target: T1, ZNF524 ZF1-4 minimal domain (human, UniProt Q96C55 110-223)
# T1 sequence: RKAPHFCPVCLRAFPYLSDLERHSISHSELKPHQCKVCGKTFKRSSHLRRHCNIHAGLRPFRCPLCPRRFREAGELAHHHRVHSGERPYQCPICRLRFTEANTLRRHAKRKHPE
# assay_explanation: ITC; ITC: 20 mM Tris-HCl pH 7.5, 150 mM NaCl, 20 C; pull-down: 50 mM Tris-HCl pH 7.5, 150 mM NaCl, 0.5% IGEPAL, 5 mM MgCl2, 1 mM DTT, salmon sperm DNA, 4 C
# run_conditions: protein: recombinant; tags: none (GST removed by TEV); blunt
I'd be grateful if you could share measured pKd for these entries.
Recall that pKd is obtained by taking minus log10 of the concentration measured in molar.

Quick one: pKd for TTAGGG 12-bp duplex (dsDNA) DNA 1: GGTTAGGGTTAG DNA 2: CTAACCCTAACC ? 7.05

And then TTGGGG duplex (dsDNA) DNA 1: GGTTGGGGTTGG DNA 2: CCAACCCCAACC , what is it? 6.48

And then TGAGGG duplex (dsDNA) DNA 1: GGTGAGGGTGAG DNA 2: CTCACCCTCACC , what is it? 6.57

And then TCAGGG duplex (dsDNA) DNA 1: GGTCAGGGTCAG DNA 2: CTGACCCTGACC , what is it? 6.55
